tested on: IA-LM; test: relative viability (nuclei count vs DMSO), 5 days (fraction); higher = more cells survive; settings: first compound 0.2 µM
Please use Y for relative viability under 0.7 and N for everything else, ties included.

- Molecule: "CN1CCN(CCOc2cc(OC3CCOCC3)c3c(Nc4c(Cl)ccc5c4OCO5)ncnc3c2)CC1 [Saracatinib] + CS(=O)(=O)N1CCN(Cc2cc3nc(-c4cccc5[nH]ncc45)nc(N4CCOCC4)c3s2)CC1 [Pictilisib] (partner 1 µM)"
  Assigned Label: "Y"
- Molecule: "CN1CCN(CCOc2cc(OC3CCOCC3)c3c(Nc4c(Cl)ccc5c4OCO5)ncnc3c2)CC1 [Saracatinib] + C[C@@H](Oc1cc(-c2cnn(C3CCNCC3)c2)cnc1N)c1c(Cl)ccc(F)c1Cl [Crizotinib] (partner 1 µM)"
  Assigned Label: "N"
- Molecule: "Cc1csc(=NC2CCCCC2)n1/N=C/c1ccc(O)c(O)c1O [MIM1] + CC1(C)CCC(c2ccc(Cl)cc2)=C(CN2CCN(c3ccc(C(=O)NS(=O)(=O)c4ccc(N[C@H](CCN5CCOCC5)CSc5ccccc5)c(S(=O)(=O)C(F)(F)F)c4)cc3)CC2)C1 [Navitoclax] (partner 0.5 µM)"
  Assigned Label: "Y"
- Molecule: "CCNC(=O)c1noc(-c2cc(C(C)C)c(O)cc2O)c1-c1ccc(CN2CCOCC2)cc1 [Luminespib] + O=C(c1cc(Cc2n[nH]c(=O)c3ccccc23)ccc1F)N1CCN(C(=O)C2CC2)CC1 [Olaparib] (partner 8 µM)"
  Assigned Label: "Y"
- Molecule: "Cc1csc(=NC2CCCCC2)n1/N=C/c1ccc(O)c(O)c1O [MIM1] + O=C(CCCCCCC(=O)Nc1ccccc1)NO [Vorinostat] (partner 1 µM)"
  Assigned Label: "N"
- Molecule: "CN1CCN(CCOc2cc(OC3CCOCC3)c3c(Nc4c(Cl)ccc5c4OCO5)ncnc3c2)CC1 [Saracatinib] + C[C@]1(O)C[C@@H](c2nc(-c3ccc4ccc(-c5ccccc5)nc4c3)c3c(N)nccn32)C1 [Linsitinib] (partner 1 µM)"
  Assigned Label: "N"
- Molecule: "Cc1csc(=NC2CCCCC2)n1/N=C/c1ccc(O)c(O)c1O [MIM1] + CS(=O)(=O)N1CCN(Cc2cc3nc(-c4cccc5[nH]ncc45)nc(N4CCOCC4)c3s2)CC1 [Pictilisib] (partner 1 µM)"
  Assigned Label: "Y"
- Molecule: "CCNC(=O)c1noc(-c2cc(C(C)C)c(O)cc2O)c1-c1ccc(CN2CCOCC2)cc1 [Luminespib] + Cc1nc(NC(=O)N2CCC[C@H]2C(N)=O)sc1-c1ccnc(C(C)(C)C(F)(F)F)c1 [Alpelisib] (partner 2 µM)"
  Assigned Label: "Y"

====

tested on: NCI-H1793; test: relative viability (nuclei count vs DMSO), 5 days (fraction); higher = more cells survive; details: first compound 2 µM

- Molecule: "Cc1csc(=NC2CCCCC2)n1/N=C/c1ccc(O)c(O)c1O [MIM1] + CS(=O)(=O)N1CCN(Cc2cc3nc(-c4cccc5[nH]ncc45)nc(N4CCOCC4)c3s2)CC1 [Pictilisib] (partner 1 µM)"
  relative viability: 0.344
- Molecule: "Cc1csc(=NC2CCCCC2)n1/N=C/c1ccc(O)c(O)c1O [MIM1] + Cc1cc(Nc2cc(N3CCN(C)CC3)nc(Sc3ccc(NC(=O)C4CC4)cc3)n2)n[nH]1 [Tozasertib] (partner 0.1 µM)"
  relative viability: 0.435
- Molecule: "Cc1csc(=NC2CCCCC2)n1/N=C/c1ccc(O)c(O)c1O [MIM1] + Nc1nc2[nH]cc(CCc3ccc(C(=O)N[C@@H](CCC(=O)O)C(=O)O)cc3)c2c(=O)[nH]1 [Pemetrexed] (partner 0.2 µM)"
  relative viability: 1.13
- Molecule: "CN1CCN(CCOc2cc(OC3CCOCC3)c3c(Nc4c(Cl)ccc5c4OCO5)ncnc3c2)CC1 [Saracatinib] + COc1cc2c(Oc3ccc(NC(=O)C4(C(=O)Nc5ccc(F)cc5)CC4)cc3F)ccnc2cc1OCCCN1CCOCC1 [Foretinib] (partner 0.25 µM)"
  relative viability: 0.454
- Molecule: "Cc1csc(=NC2CCCCC2)n1/N=C/c1ccc(O)c(O)c1O [MIM1] + N=C(N)NC(=N)NCCc1ccccc1 [Phenformin] (partner 250 µM)"
  relative viability: 0.351

====

system: COR-L 105; experiment: relative viability (nuclei count vs DMSO), 5 days (fraction); higher = more cells survive; conditions: first compound 20 µM

- Compound: "Cc1csc(=NC2CCCCC2)n1/N=C/c1ccc(O)c(O)c1O [MIM1] + CS(=O)(=O)CCNCc1ccc(-c2ccc3ncnc(Nc4ccc(OCc5cccc(F)c5)c(Cl)c4)c3c2)o1 [Lapatinib] (partner 2 µM)"
  Target Entity: "COR-L 105"
  relative viability: 0.294
- Compound: "Cc1csc(=NC2CCCCC2)n1/N=C/c1ccc(O)c(O)c1O [MIM1] + CCNC(=O)c1noc(-c2cc(C(C)C)c(O)cc2O)c1-c1ccc(CN2CCOCC2)cc1 [Luminespib] (partner 0.01 µM)"
  Target Entity: "COR-L 105"
  relative viability: 0.801
- Compound: "Cc1csc(=NC2CCCCC2)n1/N=C/c1ccc(O)c(O)c1O [MIM1] + Nc1nc2[nH]cc(CCc3ccc(C(=O)N[C@@H](CCC(=O)O)C(=O)O)cc3)c2c(=O)[nH]1 [Pemetrexed] (partner 0.2 µM)"
  Target Entity: "COR-L 105"
  relative viability: 1.04
- Compound: "Cc1csc(=NC2CCCCC2)n1/N=C/c1ccc(O)c(O)c1O [MIM1] + Cc1cc(Nc2cc(N3CCN(C)CC3)nc(Sc3ccc(NC(=O)C4CC4)cc3)n2)n[nH]1 [Tozasertib] (partner 0.1 µM)"
  Target Entity: "COR-L 105"
  relative viability: 0.338
- Compound: "Cc1csc(=NC2CCCCC2)n1/N=C/c1ccc(O)c(O)c1O [MIM1] + N=C(N)NC(=N)NCCc1ccccc1 [Phenformin] (partner 250 µM)"
  Target Entity: "COR-L 105"
  relative viability: 0.307
- Compound: "Cc1csc(=NC2CCCCC2)n1/N=C/c1ccc(O)c(O)c1O [MIM1] + CC(C)C[C@H](NC(=O)[C@H](Cc1ccccc1)NC(=O)c1cnccn1)B(O)O [Bortezomib] (partner 0.002 µM)"
  Target Entity: "COR-L 105"
  relative viability: 0.278

====

test system: NCI-H1975; assay: relative viability (nuclei count vs DMSO), 5 days (fraction); higher = more cells survive; conditions: first compound 0.02 µM
Please use fulfilled for relative viability under 0.4 and not fulfilled for everything else, ties included.

- Molecule: "CN1CCN(CCOc2cc(OC3CCOCC3)c3c(Nc4c(Cl)ccc5c4OCO5)ncnc3c2)CC1 [Saracatinib] + NC(=O)Nc1cc(-c2cccc(F)c2)sc1C(=O)N[C@H]1CCCNC1 [AZD7762] (partner 0.2 µM)"
  Assigned Label: "not fulfilled"
- Molecule: "CCNC(=O)c1noc(-c2cc(C(C)C)c(O)cc2O)c1-c1ccc(CN2CCOCC2)cc1 [Luminespib] + O=C(c1cc(Cc2n[nH]c(=O)c3ccccc23)ccc1F)N1CCN(C(=O)C2CC2)CC1 [Olaparib] (partner 8 µM)"
  Assigned Label: "not fulfilled"
- Molecule: "CCNC(=O)c1noc(-c2cc(C(C)C)c(O)cc2O)c1-c1ccc(CN2CCOCC2)cc1 [Luminespib] + NC(=O)Nc1cc(-c2cccc(F)c2)sc1C(=O)N[C@H]1CCCNC1 [AZD7762] (partner 0.2 µM)"
  Assigned Label: "fulfilled"
- Molecule: "CN1CCN(CCOc2cc(OC3CCOCC3)c3c(Nc4c(Cl)ccc5c4OCO5)ncnc3c2)CC1 [Saracatinib] + Nc1nc2[nH]cc(CCc3ccc(C(=O)N[C@@H](CCC(=O)O)C(=O)O)cc3)c2c(=O)[nH]1 [Pemetrexed] (partner 0.2 µM)"
  Assigned Label: "fulfilled"
- Molecule: "CCNC(=O)c1noc(-c2cc(C(C)C)c(O)cc2O)c1-c1ccc(CN2CCOCC2)cc1 [Luminespib] + C[C@]1(O)C[C@@H](c2nc(-c3ccc4ccc(-c5ccccc5)nc4c3)c3c(N)nccn32)C1 [Linsitinib] (partner 1 µM)"
  Assigned Label: "not fulfilled"
- Molecule: "CCNC(=O)c1noc(-c2cc(C(C)C)c(O)cc2O)c1-c1ccc(CN2CCOCC2)cc1 [Luminespib] + Cc1nc(Nc2ncc(C(=O)Nc3c(C)cccc3Cl)s2)cc(N2CCN(CCO)CC2)n1 [Dasatinib] (partner 0.075 µM)"
  Assigned Label: "fulfilled"
- Molecule: "CN1CCN(CCOc2cc(OC3CCOCC3)c3c(Nc4c(Cl)ccc5c4OCO5)ncnc3c2)CC1 [Saracatinib] + CC(=O)Nc1cccc(-n2c(=O)n(C3CC3)c(=O)c3c(Nc4ccc(I)cc4F)n(C)c(=O)c(C)c32)c1 [Trametinib] (partner 0.02 µM)"
  Assigned Label: "fulfilled"
- Molecule: "CN1CCN(CCOc2cc(OC3CCOCC3)c3c(Nc4c(Cl)ccc5c4OCO5)ncnc3c2)CC1 [Saracatinib] + O=C(CCCCCCC(=O)Nc1ccccc1)NO [Vorinostat] (partner 1 µM)"
  Assigned Label: "not fulfilled"
- Molecule: "CN1CCN(CCOc2cc(OC3CCOCC3)c3c(Nc4c(Cl)ccc5c4OCO5)ncnc3c2)CC1 [Saracatinib] + Cc1nc(NC(=O)N2CCC[C@H]2C(N)=O)sc1-c1ccnc(C(C)(C)C(F)(F)F)c1 [Alpelisib] (partner 2 µM)"
  Assigned Label: "not fulfilled"
- Molecule: "CCNC(=O)c1noc(-c2cc(C(C)C)c(O)cc2O)c1-c1ccc(CN2CCOCC2)cc1 [Luminespib] + CS(=O)(=O)CCNCc1ccc(-c2ccc3ncnc(Nc4ccc(OCc5cccc(F)c5)c(Cl)c4)c3c2)o1 [Lapatinib] (partner 2 µM)"
  Assigned Label: "fulfilled"
- Molecule: "CN1CCN(CCOc2cc(OC3CCOCC3)c3c(Nc4c(Cl)ccc5c4OCO5)ncnc3c2)CC1 [Saracatinib] + CC1(C)CCC(c2ccc(Cl)cc2)=C(CN2CCN(c3ccc(C(=O)NS(=O)(=O)c4ccc(N[C@H](CCN5CCOCC5)CSc5ccccc5)c(S(=O)(=O)C(F)(F)F)c4)cc3)CC2)C1 [Navitoclax] (partner 0.5 µM)"
  Assigned Label: "not fulfilled"
- Molecule: "CN1CCN(CCOc2cc(OC3CCOCC3)c3c(Nc4c(Cl)ccc5c4OCO5)ncnc3c2)CC1 [Saracatinib] + COc1cccc2cc(-c3nc([C@H]4CC[C@H](C(=O)O)CC4)n4ncnc(N)c34)[nH]c12 [OSI-027] (partner 0.5 µM)"
  Assigned Label: "not fulfilled"
- Molecule: "CN1CCN(CCOc2cc(OC3CCOCC3)c3c(Nc4c(Cl)ccc5c4OCO5)ncnc3c2)CC1 [Saracatinib] + COc1cc2c(Oc3ccc(NC(=O)C4(C(=O)Nc5ccc(F)cc5)CC4)cc3F)ccnc2cc1OCCCN1CCOCC1 [Foretinib] (partner 0.25 µM)"
  Assigned Label: "not fulfilled"
